The entries below come with measured Purity values attached.
# ASSAY SUMMARY: Solid-state stability (HPLC purity and crystal form by XRPD after storage)
# Format: physicochemical
# MEASUREMENT SETUP: 25 °C/60% RH/open, 2 weeks; HPLC; 20160 min
Structures can show the parent of a compound that is named as a salt.
OBSERVATION TYPE: Purity (area %)

> print(dat)
                                    molecule  test.result
 1  CNCc1ccc(NS(=O)(=O)c2ccsc2)c(-c2ccco2)c1 [Tartrate crystal form H]        98.62
 2  CNCc1ccc(NS(=O)(=O)c2ccsc2)c(-c2ccco2)c1 [sulfate crystal form D]        98.65
 3  CNCc1ccc(NS(=O)(=O)c2ccsc2)c(-c2ccco2)c1 [Malonate crystal form K]        98.61
 4  CNCc1ccc(NS(=O)(=O)c2ccsc2)c(-c2ccco2)c1 [succinate crystal form E]        98.86
 5  CNCc1ccc(NS(=O)(=O)c2ccsc2)c(-c2ccco2)c1 [malate crystal form F]         98.7
 6  CNCc1ccc(NS(=O)(=O)c2ccsc2)c(-c2ccco2)c1 [free crystal form A]        98.14
 7  CNCc1ccc(NS(=O)(=O)c2ccsc2)c(-c2ccco2)c1 [benzene sulfonate crystal form J]        98.85
 8  CNCc1ccc(NS(=O)(=O)c2ccsc2)c(-c2ccco2)c1 [Pyroglutamate crystal form I]        98.58
 9  CNCc1ccc(NS(=O)(=O)c2ccsc2)c(-c2ccco2)c1 [hydrochloride crystal form C]        98.92
10  CNCc1ccc(NS(=O)(=O)c2ccsc2)c(-c2ccco2)c1 [Phosphate crystal form G]        98.09

Where do the numbers come from? From patent US20260297068A1.
